Assay: Selectivity ratio of GI50 for cytotoxicity against human MRC5 cells to GI50 for antiproliferative activity against MMR-deficient human HCT-116 cells
Format: toxicity, cell-based
Conditions: MRC5 cells versus MMR-deficient HCT-116 cells, read-out: RatioGI50
valueKind: selectivity ratio
Please give only the number in your answer, with no unit.

Asked: Give me measured selectivity ratio, please, for this molecule: Cn1nnc2c(C(N)=O)ncn2c1=O [TEMOZOLOMIDE]
Given back: 1.4

---

Experiment: Cytotoxicity against human MRC5 cells assessed as inhibition of cell growth measured after 7 days by MTT assay
Assay type: toxicity, cell-based
Details: time 7 day
Measured GI50 at 168 h of individual entries
Numeric answer only, unit µM assumed.

smilesData	GI50 at 168 h / µM
C#CCn1nnc2c(-c3nc(C)cs3)ncn2c1=O	25

Asked: Give me measured GI50 at 168 h, please, for this molecule: `C#CCn1nnc2c(-c3nccs3)ncn2c1=O`
Given back: 25

---

Assay: Intrinsic clearance in human liver microsomes in presence of NADPH
Assay type: ADME, Microsome
Conditions: read-out: CLH
valueKind: microsomal CLint (µL/min/mg)

P. Cn1nnc2c(C(N)=O)ncn2c1=O [TEMOZOLOMIDE]
Q. C#CCn1nnc2c(-c3nc(C)cs3)ncn2c1=O
R. C#CCn1nnc2c(-c3nccs3)ncn2c1=O
S. C#CCn1nnc2c(C(N)=O)ncn2c1=O
Asked: List the 4 entries from lowest microsomal CLint to highest microsomal CLint value. Labels, ranked as asked.
Given back: S, P, R, Q

---

Experiment: Half life of the compound in phosphate buffered saline at pH 6.8 by LC-MS analysis
Format: physicochemical
valueKind: half-life (h)

compound	endpointUnit	recordedNumber
C#CCn1nnc2c(C(N)=O)ncn2c1=O	h	3.86

a. C#CCn1nnc2c(-c3nccs3)ncn2c1=O
b. C#CCn1nnc2c(-c3nc(C)cs3)ncn2c1=O
Asked: Select the item with the higher value of half-life from the options a and b listed. Let me know the label of the one you choose.
Given back: a
(a: 5.46 h, b: 3.57 h)

---

Assay: Half life in human plasma
Format: ADME, cell-free
valueKind: half-life (min)

compound	valueKind	recordedNumber
C#CCn1nnc2c(-c3nccs3)ncn2c1=O	half-life	3.34
C#CCn1nnc2c(C(N)=O)ncn2c1=O	half-life	14.5

P. Cn1nnc2c(C(N)=O)ncn2c1=O [TEMOZOLOMIDE]
Q. C#CCn1nnc2c(-c3nc(C)cs3)ncn2c1=O
Asked: Select the item with the higher value of half-life from the options P and Q listed. Let me know the label of the one you choose.
Given back: P
(P: 19.8 min, Q: 2.97 min)

---

Assay: Intrinsic clearance in human liver microsomes in absence of NADPH
Assay type: ADME, Microsome
Conditions: read-out: CLH
valueKind: microsomal CLint (µL/min/mg)

molecule	recordedNumber
Cn1nnc2c(C(N)=O)ncn2c1=O [TEMOZOLOMIDE]	23
C#CCn1nnc2c(C(N)=O)ncn2c1=O	25.2
C#CCn1nnc2c(-c3nccs3)ncn2c1=O	16.4
C#CCn1nnc2c(-c3nc(C)cs3)ncn2c1=O	18.6

---

Assay: Apparent elimination half life in human
valueKind: half-life (h)
Numeric answer only, unit h assumed.

Asked: Give me measured half-life, please, for this molecule: Cn1nnc2c(C(N)=O)ncn2c1=O [TEMOZOLOMIDE]
Given back: 1.8

---

Assay: Permeability of the compound assessed as drug recovery measured after 6 hrs by PAMPA assay
Assay type: ADME
Conditions: read-out: Drug recovery
valueKind: recovery at 6 h (%)

compound	recovery at 6 h / %
C#CCn1nnc2c(-c3nc(C)cs3)ncn2c1=O	18.5

1. C#CCn1nnc2c(C(N)=O)ncn2c1=O
2. C#CCn1nnc2c(-c3nccs3)ncn2c1=O
3. Cn1nnc2c(C(N)=O)ncn2c1=O [TEMOZOLOMIDE]
Asked: # desc sort on recovery at 6 h across 3 compounds Labels, ranked as asked.
Given back: 3, 2, 1
(3: 65.3%, 2: 17.5%, 1: 6.9%)

---

Test: Half life of the compound in phosphate buffered saline at pH 7.4 by 1H NMR spectroscopic analysis
Assay type: physicochemical
valueKind: half-life (h)

molecule	half-life [h]
Cn1nnc2c(C(N)=O)ncn2c1=O [TEMOZOLOMIDE]	1.53

I. C#CCn1nnc2c(-c3nc(C)cs3)ncn2c1=O
II. C#CCn1nnc2c(-c3nccs3)ncn2c1=O
III. C#CCn1nnc2c(C(N)=O)ncn2c1=O
Asked: # desc sort on half-life across 3 molecules Labels, ranked as asked.
Given back: II, I, III

---

Assay: Half life of the compound in phosphate buffered saline at pH 5.5 by 1H NMR spectroscopic analysis
Assay type: physicochemical
valueKind: half-life (h)

I. C#CCn1nnc2c(-c3nc(C)cs3)ncn2c1=O
II. C#CCn1nnc2c(-c3nccs3)ncn2c1=O
Asked: Of the pair I and II , name the member with the lesser recorded half-life. Let me know the label of the one you choose.
Given back: I
(I: 0.12 h, II: 1.07 h)

---

Test: Intrinsic clearance in rat liver microsomes in absence of NADPH
Format: ADME, Microsome
Details: read-out: CLH
valueKind: microsomal CLint (µL/min/mg)

smilesData	valueKind	recordedNumber
C#CCn1nnc2c(-c3nc(C)cs3)ncn2c1=O	microsomal CLint	14.7

I. C#CCn1nnc2c(-c3nccs3)ncn2c1=O
II. C#CCn1nnc2c(C(N)=O)ncn2c1=O
Asked: Select the item with the higher value of microsomal CLint from the options I and II listed. Let me know the label of the one you choose.
Given back: II
(II: 29.2 µL/min/mg, I: 17.5 µL/min/mg)

---

Assay: Half life in rat liver microsomes in absence of NADPH
Assay type: ADME, Microsome
valueKind: half-life (h)

smilesData	recordedNumber
C#CCn1nnc2c(-c3nccs3)ncn2c1=O	1.32

P. C#CCn1nnc2c(C(N)=O)ncn2c1=O
Q. C#CCn1nnc2c(-c3nc(C)cs3)ncn2c1=O
Asked: Select the item with the higher value of half-life from the options P and Q listed. Let me know the label of the one you choose.
Given back: Q
(Q: 1.57 h, P: 0.812 h)

---

Assay: Half life in rat liver microsomes in presence of NADPH
Type: ADME, Microsome
valueKind: half-life (min)

smilesData	half-life (min)
C#CCn1nnc2c(C(N)=O)ncn2c1=O	39.3

I. C#CCn1nnc2c(-c3nccs3)ncn2c1=O
II. C#CCn1nnc2c(-c3nc(C)cs3)ncn2c1=O
Asked: Select the item with the higher value of half-life from the options I and II listed. Let me know the label of the one you choose.
Given back: I

---

Assay: Ratio of permeability across dog MDCK cells transfected with MDR1 to permeability across wild type dog MDCK cells
Format: ADME, cell-based, Canis lupus familiaris
valueKind: Ratio

compound	recordedNumber
C#CCn1nnc2c(C(N)=O)ncn2c1=O	0.93
C#CCn1nnc2c(-c3nc(C)cs3)ncn2c1=O	1.16

1. C#CCn1nnc2c(-c3nccs3)ncn2c1=O
2. Cn1nnc2c(C(N)=O)ncn2c1=O [TEMOZOLOMIDE]
Asked: Select the item with the higher value of Ratio from the options 1 and 2 listed. Let me know the label of the one you choose.
Given back: 2

---

Experiment: Intrinsic clearance in rat liver microsomes in presence of NADPH
Type: ADME, Microsome
Details: read-out: CLH
valueKind: microsomal CLint (µL/min/mg)

A. C#CCn1nnc2c(C(N)=O)ncn2c1=O
B. C#CCn1nnc2c(-c3nc(C)cs3)ncn2c1=O
Asked: Of the pair A and B , name the member with the lesser recorded microsomal CLint. Let me know the label of the one you choose.
Given back: A

---

Experiment: Permeability of the compound measured after 6 hrs by PAMPA assay
Assay type: ADME
Conditions: read-out: permeability
valueKind: Papp at 6 h (×10⁻⁶ cm/s)

molecule	Papp at 6 h / ×10⁻⁶ cm/s
C#CCn1nnc2c(-c3nccs3)ncn2c1=O	3.18
C#CCn1nnc2c(C(N)=O)ncn2c1=O	1.38

A. Cn1nnc2c(C(N)=O)ncn2c1=O [TEMOZOLOMIDE]
B. C#CCn1nnc2c(-c3nc(C)cs3)ncn2c1=O
Asked: Select the item with the higher value of Papp at 6 h from the options A and B listed. Let me know the label of the one you choose.
Given back: B

---

Assay: Half life in rat plasma
Format: ADME, cell-free
valueKind: half-life (min)

molecule	endpointUnit	half-life
C#CCn1nnc2c(-c3nccs3)ncn2c1=O	min	2.66

a. C#CCn1nnc2c(C(N)=O)ncn2c1=O
b. C#CCn1nnc2c(-c3nc(C)cs3)ncn2c1=O
c. Cn1nnc2c(C(N)=O)ncn2c1=O [TEMOZOLOMIDE]
Asked: # desc sort on half-life across 3 molecules Labels, ranked as asked.
Given back: a, c, b

---

Test: Half life of the compound in phosphate buffered saline at pH 7.4 by LC-MS analysis
Assay type: physicochemical
valueKind: half-life (h)

Look over these answered cases.
compound	endpointUnit	half-life
C#CCn1nnc2c(-c3nccs3)ncn2c1=O	h	3.29
Cn1nnc2c(C(N)=O)ncn2c1=O [TEMOZOLOMIDE]	h	2.47

a. C#CCn1nnc2c(C(N)=O)ncn2c1=O
b. C#CCn1nnc2c(-c3nc(C)cs3)ncn2c1=O
Asked: Of the pair a and b , name the member with the lesser recorded half-life. Let me know the label of the one you choose.
Given back: a
(a: 1.92 h, b: 2.81 h)
